Ref: patent US20170081400A1

SYSTEM: T1, human TL1A extracellular domain with N-terminal HIS and FLAG tag (human, UniProt O95150 72-251)
T1 construct: whole entry named. ~70 kDa fraction purified by gel filtration
T1 sequence: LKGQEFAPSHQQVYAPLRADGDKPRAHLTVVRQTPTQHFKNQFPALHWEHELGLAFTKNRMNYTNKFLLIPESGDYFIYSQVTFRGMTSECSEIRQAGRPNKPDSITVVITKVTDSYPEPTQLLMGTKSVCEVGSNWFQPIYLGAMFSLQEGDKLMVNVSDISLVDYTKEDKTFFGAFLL
PROTOCOL DETAILS: SPR run 3; supernatant on Protein A; TL1A 10 ug/mL; timepoint 59
Give TL1A Binding Level (Early) for every item shown.
Form field: result (number plus unit)

query: Quick check: TL1A Binding Level (Early) of 320-269 (antibody, human IgG1, name in Kabat numbering, V domains shown, human IgG1, lambda) VH: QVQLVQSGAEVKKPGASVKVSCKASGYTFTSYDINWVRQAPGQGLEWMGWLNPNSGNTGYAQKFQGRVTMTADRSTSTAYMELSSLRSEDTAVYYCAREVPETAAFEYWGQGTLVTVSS VL: QSVLTQPPSVSGAPGQRVTISCTSSSSDIGAQLGVHWYQQLPGTAPKLLIEGYYNRPSGVPDRFSGSKSGTSASLTITGLLPEDEGDYYCQSYDGTLSALFGGGTKLTVLG ?
result: 126 RU

query: Reported TL1A Binding Level (Early) for 320-268 (antibody, human IgG1, name in Kabat numbering, V domains shown, human IgG1, lambda) VH: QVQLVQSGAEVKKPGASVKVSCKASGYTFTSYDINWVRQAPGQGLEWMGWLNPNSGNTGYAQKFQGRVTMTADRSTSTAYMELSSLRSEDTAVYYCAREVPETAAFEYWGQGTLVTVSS VL: QSVLTQPPSVSGAPGQRVTISCTSSSSDIGASLGVHWYQQLPGTAPKLLIEGYYNRPSGVPDRFSGSKSGTSASLTITGLLPEDEGDYYCQSYDGTLSALFGGGTKLTVLG : what is it?
result: 28 RU

query: What measured TL1A Binding Level (Early) goes with 320-280 (antibody, human IgG1, name in Kabat numbering, V domains shown, human IgG1, lambda) VH: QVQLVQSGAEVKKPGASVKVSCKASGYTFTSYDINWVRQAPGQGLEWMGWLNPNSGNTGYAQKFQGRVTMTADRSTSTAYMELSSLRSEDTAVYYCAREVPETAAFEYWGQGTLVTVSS VL: QSVLTQPPSVSGAPGQRVTISCTSSSSDIGAGHGVHWYQQLPGTAPKLLIEGYYNRPSGVPDRFSGSKSGTSASLTITGLLPEDEGDYYCQSYDGTLSALFGGGTKLTVLG ?
result: 228 RU

query: What does the data say about its TL1A Binding Level (Early)? Entry: 320-296 (antibody, human IgG1, name in Kabat numbering, V domains shown, human IgG1, lambda) VH: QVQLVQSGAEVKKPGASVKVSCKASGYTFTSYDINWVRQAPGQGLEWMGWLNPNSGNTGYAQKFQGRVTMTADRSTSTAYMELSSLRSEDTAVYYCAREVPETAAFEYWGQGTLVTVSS VL: QSVLTQPPSVSGAPGQRVTISCTSSSSDIGAGLGDHWYQQLPGTAPKLLIEGYYNRPSGVPDRFSGSKSGTSASLTITGLLPEDEGDYYCQSYDGTLSALFGGGTKLTVLG
result: 118 RU

query: Quick one: TL1A Binding Level (Early) for 320-282 (antibody, human IgG1, name in Kabat numbering, V domains shown, human IgG1, lambda) VH: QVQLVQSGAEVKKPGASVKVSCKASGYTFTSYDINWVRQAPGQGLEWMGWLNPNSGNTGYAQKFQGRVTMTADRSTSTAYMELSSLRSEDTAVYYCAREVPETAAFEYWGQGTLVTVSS VL: QSVLTQPPSVSGAPGQRVTISCTSSSSDIGAGWGVHWYQQLPGTAPKLLIEGYYNRPSGVPDRFSGSKSGTSASLTITGLLPEDEGDYYCQSYDGTLSALFGGGTKLTVLG ?
result: 75 RU

query: Which TL1A Binding Level (Early) reading was recorded for the binder 320-266 (antibody, human IgG1, name in Kabat numbering, V domains shown, human IgG1, lambda) VH: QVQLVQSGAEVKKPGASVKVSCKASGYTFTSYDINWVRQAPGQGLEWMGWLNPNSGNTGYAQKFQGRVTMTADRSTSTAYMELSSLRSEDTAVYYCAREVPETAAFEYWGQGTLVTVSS VL: QSVLTQPPSVSGAPGQRVTISCTSSSSDIGYGLGVHWYQQLPGTAPKLLIEGYYNRPSGVPDRFSGSKSGTSASLTITGLLPEDEGDYYCQSYDGTLSALFGGGTKLTVLG ?
result: 218 RU

query: I would be grateful if you could share the reported TL1A Binding Level (Early) for 320-263 (antibody, human IgG1, name in Kabat numbering, V domains shown, human IgG1, lambda) VH: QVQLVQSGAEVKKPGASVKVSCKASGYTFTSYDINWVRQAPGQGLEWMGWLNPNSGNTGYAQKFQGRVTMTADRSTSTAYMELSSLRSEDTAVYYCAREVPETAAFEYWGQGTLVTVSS VL: QSVLTQPPSVSGAPGQRVTISCTSSSSDIGKGLGVHWYQQLPGTAPKLLIEGYYNRPSGVPDRFSGSKSGTSASLTITGLLPEDEGDYYCQSYDGTLSALFGGGTKLTVLG .
result: 121 RU

query: Fill in: TL1A Binding Level (Early) of 320-262 (antibody, human IgG1, name in Kabat numbering, V domains shown, human IgG1, lambda) VH: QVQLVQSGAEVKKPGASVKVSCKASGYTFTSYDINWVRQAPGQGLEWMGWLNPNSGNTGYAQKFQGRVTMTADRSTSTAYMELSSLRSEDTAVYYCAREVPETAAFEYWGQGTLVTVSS VL: QSVLTQPPSVSGAPGQRVTISCTSSSSDIGHGLGVHWYQQLPGTAPKLLIEGYYNRPSGVPDRFSGSKSGTSASLTITGLLPEDEGDYYCQSYDGTLSALFGGGTKLTVLG is ___
result: 209 RU

query: Sample 320-260 (antibody, human IgG1, name in Kabat numbering, V domains shown, human IgG1, lambda) VH: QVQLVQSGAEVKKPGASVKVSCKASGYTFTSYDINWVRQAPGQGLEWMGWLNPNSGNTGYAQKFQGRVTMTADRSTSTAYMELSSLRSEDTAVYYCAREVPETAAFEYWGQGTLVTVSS VL: QSVLTQPPSVSGAPGQRVTISCTSSSSDIGQGLGVHWYQQLPGTAPKLLIEGYYNRPSGVPDRFSGSKSGTSASLTITGLLPEDEGDYYCQSYDGTLSALFGGGTKLTVLG — what was its TL1A Binding Level (Early)?
result: 182 RU

query: Sample 320-261 (antibody, human IgG1, name in Kabat numbering, V domains shown, human IgG1, lambda) VH: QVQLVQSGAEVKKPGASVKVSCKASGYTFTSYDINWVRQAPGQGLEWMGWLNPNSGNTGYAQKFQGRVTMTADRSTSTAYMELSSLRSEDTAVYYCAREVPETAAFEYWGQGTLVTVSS VL: QSVLTQPPSVSGAPGQRVTISCTSSSSDIGDGLGVHWYQQLPGTAPKLLIEGYYNRPSGVPDRFSGSKSGTSASLTITGLLPEDEGDYYCQSYDGTLSALFGGGTKLTVLG — what was its TL1A Binding Level (Early)?
result: 86 RU
